FYI, the data here is from PubChem BioAssay (NCATS).

Assay: qHTS of pediatric cancer cell lines to identify multiple opportunities for drug repurposing: Confirmatory screen for TC32 cells (AID 1347118);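 also: potency is read from the fitted curve at half-maximal effect; cells exposed to compound for 48 h before the read; nearly all actives have a fitted effect of over 65% in size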
Conditions: TC32 Ewing sarcoma cells viability qHTS; series mostly up to 45.9 µM
Experimental: Drug repurposing or repositioning has been offered as a strategy for drug development in oncology programs. […] [1] Shen, M et al. Quantitative high-throughput phenotypic screening of pediatric cancer cell lines identifies multiple opportunities for drug repurposing. […] Cells were assayed in growth media at a density of 500-1,000 cells/well. […] After a 15min incubation at room temperature, samples were analyzed for luminescence intensity using a ViewLux High-throughput CCD imager equipped with clear filters.
Records with an inconclusive call do not appear. Calls of active or inactive are those of the source. Calls follow the shape of the dose curve; as a rule, active = well fitted cell-killing curve with a large enough effect; inconclusive = small, poorly fitted or top-dose-only effect; inactive = no such curve, though single readings can be large or run the other way.
Bench note: report the call from true (active), false (inactive)

NC(=O)c1cccc2cn(-c3ccc([C@@H]4CCCNC4)cc3)nc12    true
O=C(C=Cc1cccc(S(=O)(=O)Nc2ccccc2)c1)NO    true

Switching to the query record.
So what was the verdict on `CC(C)[C@H](C(=O)Nc1ccc(C(=O)NO)cc1)c1ccccc1` in this test?
true

* * *

Assay: Quantitative High-Throughput drug screen in 47 multiple myeloma cell lines against the NCATS MIPE library collection: KMS34_JCRB cell viability assay (AID 1918985); also: nearly all actives have a fitted effect of over 40% in size
Conditions: KMS34 myeloma viability, CellTiter-Glo ATP luminescence, 48 h; series mostly up to 45.8 µM
Source text: PI: Beverly A. Mock Ph.D. Laboratory of Cancer Biology and Genetics, Center for Cancer Research, National Cancer Institute, National Institute of Health, Bethesda, Maryland […] 5; Detector; 425V; Luminescence; Viewlux PerkinElmer. […] 1. […] Briefly, the corresponding myeloma cell lines were screened in 1,536-well plates with 500 cells, 5-uL per well for inhibition of cell viability (assessed by measuring ATP levels with CellTiterGlo). […]
Records with an inconclusive call do not appear. Active and inactive are the calls of the source. Calls follow the shape of the dose curve; as a rule, active = well fitted cell-killing curve with a large enough effect; inconclusive = small, poorly fitted or top-dose-only effect, or effect the other way; inactive = no such curve, though single readings can be large or run the other way.
Bench note: report the call from Yes (active), No (inactive)

COc1cc2c(cc1-c1c(C)noc1C)ncc1[nH]c(=O)n([C@H](C)c3ccccn3)c12    Yes
C=C1C(=CC=C2CCCC3(C)[C@@H]([C@H](C)C=CC=CC(O)(CC)CC)CC[C@@H]23)C[C@@H](O)C[C@@H]1O (some centres not stated)    Yes
CC(C)(C)c1cnc(CSc2cnc(NC(=O)C3CCNCC3)s2)o1    Yes
O=c1[nH]c(=O)n(C2CCCO2)cc1F (configuration not stated)    No
Cc1ccc(NC(=O)C2(c3ccc4c(c3)OC(F)(F)O4)CC2)nc1-c1cccc(C(=O)O)c1    Yes

In this assay, the call recorded for `CNC(=O)CN1CCC(Oc2cc3c(Nc4cccc(Cl)c4F)ncnc3cc2OC)CC1` was what?
Yes

Query: recorded result category for CC(O)C1C(=O)N2C(C(=O)O)=C(SC3CNC(C(=O)N(C)C)C3)C(C)C12 (configuration not stated) in this test
No

GET /call?item= `Cc1nc(Nc2n[nH]c3c2CN(C(=O)N[C@H](CN(C)C)c2ccccc2)C3(C)C)c2sccc2n1` returns the recorded outcome of this test.
Yes

Would you mind telling me which call this test gave `Cc1cc(Nc2cc(N3CCN(C)CC3)nc(C=Cc3ccccc3)n2)n[nH]1` ?
Yes

Outcome logged for `O=C(Nc1cn[nH]c1-c1nc2ccc(CN3CCOCC3)cc2[nH]1)NC1CC1` in this assay:
Yes

* * *

Experiment: Quantitative High-Throughput drug screen in 47 multiple myeloma cell lines against the NCATS MIPE library collection: KMS11_JCRBsus cell viability assay (AID 1919873); also: nearly all actives have a fitted effect of over 50% in size
Conditions: KMS11 myeloma viability, CellTiter-Glo ATP luminescence, 48 h; series mostly up to 45.8 µM
Results filed as inconclusive are left out. Activity calls are given as the source filed them. Calls come from the whole dose curve; as a rule, active = well fitted cell-killing curve with a large enough effect; inconclusive = small, poorly fitted or top-dose-only effect, or effect the other way; inactive = no such curve, though single readings can be large or run the other way.
Response enum: label 1 (active), label 0 (inactive)

CCS(=O)(=O)c1cccc(-c2cc(C(=O)NC3CCN(C)CC3)c(C)c3[nH]c4ncc(C)cc4c23)c1    label 1
COc1ccc(C(=O)CC2(O)C(=O)Nc3c(Cl)ccc(Cl)c32)cc1 (stereo not given)    label 1
Cc1c(Cn2c(C)nc3c(C(=O)O)cc(N4CCOCC4)cc32)cccc1C(F)(F)F    label 0
NC(=O)Nc1cc(-c2cccc(F)c2)sc1C(=O)N[C@H]1CCCNC1    label 1

Status in this test for `Cc1cc(Nc2cc(N3CCN(C)CC3)nc(Sc3ccc(NC(=O)C4CC4)cc3)n2)n[nH]1` ?
label 1

Dear all, I need the recorded test outcome for `Cc1cccc(C=NNc2cc(N3CCOCC3)nc(OCCc3ccccn3)n2)c1` , thank you.
label 1

# outcome recorded in this test, key = `C1=CCOCc2cc(ccc2OCCN2CCCC2)Nc2nccc(n2)-c2cccc(c2)OCC1`
label 1

* * *

Assay: Identifying Small Molecule Inhibitors of Pancreatic Cancer Stem Cells (Panc1, Adherent) (AID 1259362)
Conditions: viability; series mostly up to 46.1 µM
Inconclusive results are not listed. Active and inactive are the calls of the source. The call rests on the fitted dose curve; in most records, active means well fitted cell-killing curve with a large enough effect; inconclusive means small, poorly fitted or top-dose-only effect, or effect the other way, or another doubt; inactive means no such curve, though single readings can be large or run the other way.
Returns: one label drawn from T for active, F for inactive

The following molecules have reported results that may help.
O=C(C=Cc1c(C(=O)O)[nH]c2cc(Cl)cc(Cl)c12)Nc1ccccc1    F
CN(C)CC=CC(=O)Nc1cc2c(Nc3ccc(F)c(Cl)c3)ncnc2cc1O[C@H]1CCOC1    T
CCC[C@H](NC(=O)C(C#N)=Cc1cccc(Br)n1)c1ccccc1    T
C=C1C(=CC=C2CCC[C@]3(C)[C@@H]([C@H](C)C=C[C@H](C)C(C)C)CC[C@@H]23)C[C@@H](O)C[C@@H]1O    T

Look up the recorded call for `NC(=O)Nc1cc(-c2cccc(F)c2)sc1C(=O)N[C@H]1CCCNC1` in this test.
T

* * *

Assay: qHTS of pediatric cancer cell lines to identify multiple opportunities for drug repurposing: Confirmatory screen for SK-N-MC cells (AID 1347111);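 also: cells exposed to compound for 48 h before the readout; nearly all actives have a fitted effect of over 70% in size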; also: potency is read from the fitted curve at half-maximal effect
Details: SK-N-MC cell viability; series mostly up to 45.9 µM
Inconclusive results are not listed. Activity calls are given as the source filed them. Calls come from the whole dose curve; as a rule, active = well fitted cell-killing curve with a large enough effect; inconclusive = small, poorly fitted or top-dose-only effect; inactive = no such curve, though single readings can be large or run the other way.
QUANTITY_MEASURED: Potency

Take a look at these entries with their results.
Nc1ccccc1NC(=O)c1ccc(CNc2nccc(-c3cccnc3)n2)cc1    inactive
CCC1=C[C@@H]2CN(C1)Cc1c([nH]c3ccccc13)[C@@](C(=O)OC)(c1cc3c(cc1OC)N(C)[C@@H]1[C@@](O)(C(=O)OC)[C@H](OC(C)=O)[C@]4(CC)C=CCN5CC[C@]31[C@@H]54)C2    5.22 µM (active)
COC(=O)[C@]12CCC(C)(C)C[C@@H]1[C@@H]1C(=O)C=C3[C@@]4(C)C=C(C#N)C(=O)C(C)(C)[C@@H]4CC[C@@]3(C)[C@]1(C)CC2    3.69 µM (active)
CCN1CCN(Cc2ccc(-c3cc4c(N[C@H](C)c5ccccc5)ncnc4[nH]3)cc2)CC1    0.851 µM (active)

Would you mind telling me what Potency value was observed for `COc1cc(=C2C=c3ccccc3=N2)[nH]c1=Cc1[nH]c(C)cc1C` ?
11.7 µM (active)

What value of measured Potency is listed for `COc1ccc(OC)c(-c2nnc3ccc(-c4ccc(OC)c(O[C@@H]5CCOC5)c4)nn23)c1` ?
4.65 µM (active)

Recorded Potency of `CC(C)c1cc(-c2n[nH]c(=O)n2-c2ccc3c(ccn3C)c2)c(O)cc1O` , please.
inactive

Param item = `CC1=C(CO)C(=O)O[C@@H]([C@@H](C)[C@H]2CC[C@H]3[C@@H]4C[C@H]5O[C@]56[C@@H](O)C=CC(=O)[C@]6(C)[C@@H]4CC[C@]23C)C1` ; retrieve measured Potency.
inactive

Fill in: Potency of `CCn1nnc2c(N3CCOCC3)nc(-c3ccc(NC(=O)Nc4ccc(C(=O)N5CCN(C)CC5)cc4)cc3)nc21` is ___
0.657 µM (active)

Look up Potency: `CC(C)c1cnn2c(NCc3ccccc3)cc(N[C@@H](CO)[C@H](O)CO)nc12`
0.585 µM (active)

Request the reported Potency associated with `COCCn1c2c([n+](Cc3cnccn3)c1C)C(=O)c1ccccc1C2=O`
0.0093 µM (active)

Requested read-out: Potency. Entry: `CN(C)CC(C)(C)CNc1nn2c(-c3ccccc3)nnc2cc1C1CCC1`
20.8 µM (active)

Record request: Potency value, item `CN1CCN(Cc2ccc(NC(=O)Nc3ccc(Oc4cc(NC(=O)C5CC5)ncn4)cc3)cc2C(F)(F)F)CC1`
0.131 µM (active)

Entry `CCC(=C(c1ccccc1)c1ccc(OCCN(C)C)cc1)c1ccccc1` : reported Potency = ?
23.3 µM (active)

For the molecule `C[C@@H](Oc1cc(-c2cnn(C3CCNCC3)c2)cnc1N)c1c(Cl)ccc(F)c1Cl` , what Potency is on record?
5.85 µM (active)

What value of Potency has been reported for the following molecule? `NC(=O)Nc1cc(-c2cccc(F)c2)sc1C(=O)N[C@H]1CCCNC1`
0.414 µM (active)

Form field: reported Potency of `Cc1ccc(C(=O)Nc2ccc(CN3CCN(C)CC3)c(C(F)(F)F)c2)cc1C#Cc1cnc2cccnn12`
0.0033 µM (active)
